system: c-Abl (mouse); assay: phosphorylation enrichment, bacterial display (enrichment ratio); higher = better substrate or ligand; peptides without Tyr show the background;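 also: 11-residue human phosphosite peptides and single-mutation variants displayed on the E. coli surface, counted by deep sequencing, each peptide's frequency after selection divided by its frequency in the unselected input library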;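 also: frequency after pTyr selection over input frequency; kinase dosed for 20-30% of maximal phosphorylation in three min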
# binarize phosphorylation enrichment: threshold 0.8 inclusive, high side 1 (yes), low side 0 (no)

Solved cases (2 shown):
>>> answerlabel("IKEFKYGIEEH [GJA1_Y137_K134E]")
"0 (no)"
>>> answerlabel("YRDALYKSMVD [PHEX_Y250_F252S]")
"0 (no)"

Please check the record HDRNTYEKYLE [TF_Y666_G671E] and state if its phosphorylation enrichment is at or above 0.8.
1 (yes)

Evaluate PQQLWYTHEKK [UBTF_Y207] : phosphorylation enrichment at minimum 0.8?
0 (no)

Kindly determine if phosphorylation enrichment recorded for SVICTYSPALN [TP53_Y126_T123I] is above or exactly 0.8.
1 (yes)

Test whether the sequence YEREQYADRTR [RBM4_Y355_A359T] records phosphorylation enrichment of 0.8 or higher.
0 (no)

Could you verify whether the entry FLTQHYDAIPQ [ANG_Y38_K41I] shows phosphorylation enrichment of no less than 0.8?
0 (no)

====

biological target: Fyn (UniProt P06241); experiment: phosphorylation enrichment, bacterial display (enrichment ratio); higher = better substrate or ligand; peptides without Tyr show the background
Sequence (P06241 whole entry, looked up): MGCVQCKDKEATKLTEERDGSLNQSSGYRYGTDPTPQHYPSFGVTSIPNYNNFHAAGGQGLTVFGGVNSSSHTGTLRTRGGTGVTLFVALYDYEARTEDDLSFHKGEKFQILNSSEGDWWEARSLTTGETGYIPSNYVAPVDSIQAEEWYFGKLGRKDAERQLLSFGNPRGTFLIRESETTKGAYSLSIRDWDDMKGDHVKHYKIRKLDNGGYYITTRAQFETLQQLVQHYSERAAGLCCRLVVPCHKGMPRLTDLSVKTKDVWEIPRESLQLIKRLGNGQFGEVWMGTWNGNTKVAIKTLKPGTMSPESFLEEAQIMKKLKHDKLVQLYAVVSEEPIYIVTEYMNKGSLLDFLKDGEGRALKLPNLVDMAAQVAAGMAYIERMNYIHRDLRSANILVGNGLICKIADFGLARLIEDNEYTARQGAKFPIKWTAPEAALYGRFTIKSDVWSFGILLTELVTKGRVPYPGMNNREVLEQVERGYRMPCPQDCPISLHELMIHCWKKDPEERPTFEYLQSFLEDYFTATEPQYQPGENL
readout: phosphorylation enrichment
Give the figure only, with no unit attached.

>>> recordedresult("RGSQQYRALPV [TUBB8_Y281_T285P]")
0.655
>>> recordedresult("GPGSGYTNIMR [PKLR_Y564_R559G]")
0.391
>>> recordedresult("KPNMNYDKLSQ [FLI1_Y332_R337Q]")
0.422
>>> recordedresult("HRTLVYGGIFL [FBP1_Y259]")
5.36

Per the records, this sequence ( FFRKFYNKSED [RYR1_Y4864] ) has phosphorylation enrichment equal to 0.458

Please fill in: phosphorylation enrichment reported for KPVDTYYDSTR [DYNC2H1_Y2230_M2227V] = 0.508

The reported phosphorylation enrichment of the sequence HSLHDYKEALM [ADA2_Y337] was 0.444

In plain terms, DALDNYVVRGV [PCCA_Y473_I475V] has a documented phosphorylation enrichment of 0.507

Entry CEHFSYFGMKA [SLC15A2_Y60_R57H_YF] , phosphorylation enrichment reported as 0.379

Memo: VPEANYTSDEE [STK33_Y439_D436E] , reported phosphorylation enrichment: 0.665

Entry THPFPYLSLEI [MLH1_Y293_L292P] , phosphorylation enrichment reported as 0.295

Per the record, GESVSYLFSHV [PRPS1_Y311] has phosphorylation enrichment of 0.421

Sample VMIYAYLLHRG [PTEN_Y138_C136Y] ; phosphorylation enrichment observed: 0.443

Documented phosphorylation enrichment of NREGVYTDFAP [TGFBI_Y537_V539D] : 9.31

sequence LINSVYGCSRQ [TMPRSS6_Y290_T287N] , phosphorylation enrichment observed: 3.32

Record LWKWKYEELKE [CCDC102B_Y299] . Reported phosphorylation enrichment: 0.631

Summary for this sequence, SVTCTYSPALT [TP53_Y126_N131T] : phosphorylation enrichment is 0.446

sequence DISEPYEVFRI [IRF8_Y107_K108E_YF] , phosphorylation enrichment observed: 1.91

====

target: Hck (UniProt P08631); experiment: phosphorylation enrichment, bacterial display (enrichment ratio); higher = better substrate or ligand; peptides without Tyr show the background
Sequence (P08631 whole entry, looked up): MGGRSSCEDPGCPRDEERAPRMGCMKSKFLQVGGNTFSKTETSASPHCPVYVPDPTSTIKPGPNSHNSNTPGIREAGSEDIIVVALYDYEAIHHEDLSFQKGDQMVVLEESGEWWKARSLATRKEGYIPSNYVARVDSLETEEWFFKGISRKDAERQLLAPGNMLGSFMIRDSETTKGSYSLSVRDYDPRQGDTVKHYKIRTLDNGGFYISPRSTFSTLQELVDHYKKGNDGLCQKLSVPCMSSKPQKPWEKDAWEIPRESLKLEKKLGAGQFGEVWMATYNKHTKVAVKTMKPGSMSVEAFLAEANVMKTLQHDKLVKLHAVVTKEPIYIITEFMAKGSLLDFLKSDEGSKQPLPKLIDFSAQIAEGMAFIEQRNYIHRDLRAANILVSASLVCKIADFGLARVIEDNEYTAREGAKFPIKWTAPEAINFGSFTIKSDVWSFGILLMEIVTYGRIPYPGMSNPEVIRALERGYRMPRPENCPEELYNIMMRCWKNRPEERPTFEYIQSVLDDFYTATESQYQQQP
# label = t if phosphorylation enrichment >= 0.6 else f

>>> answerlabel("SSEYHYVGGFY [CTSC_Y347]")
"t"
>>> answerlabel("SGEKPYKCSEC [ZNF543_Y283]")
"f"
>>> answerlabel("RFLRGYRQYAY [HLA-A_Y137_D140Y]")
"t"
>>> answerlabel("IGMSSYVMLAS [GGCX_Y301_F299S]")
"f"
>>> answerlabel("SGGSSYGSGGG [KRT1_Y532]")
"f"

Given the entry LVMFIYAIFGM [SCN1A_Y1684] , answer whether its phosphorylation enrichment meets or surpasses 0.6.
t

Please indicate if the recorded phosphorylation enrichment for GTVRDYPDFNP [ANXA3_Y15_S19N] meets or exceeds 0.6.
f

Does WNGDKYAATTT [TRIM39_Y439] have a reported phosphorylation enrichment of at least 0.6?
f

Can DSNPIYSQIWS [FCRL3_Y662] be said to have phosphorylation enrichment at or above 0.6?
t

Could you verify whether the entry QKFMAYPSQGG [HLCS_Y236_L237P] shows phosphorylation enrichment of no less than 0.6?
f

Decide: phosphorylation enrichment of KDIENHIQDGK [RAD50_Y964_Y964H] >= 0.6?
f

Does AALKLYHVSDS [VIL1_Y256] have a reported phosphorylation enrichment of at least 0.6?
t

Is it the case that HFPDVYAWEQL [ALX3_Y181_R183W_YF] has phosphorylation enrichment reaching or exceeding 0.6?
t

Could you tell me if the measured phosphorylation enrichment of TENAGYYFRVS reaches 0.6 or more?
t

Decide: is the reported value of phosphorylation enrichment for PLDGEYFTLHI [TP53_Y327_Q331H] equal to or greater than 0.6?
t

Does the reported phosphorylation enrichment for LARDMCDKEFF [MET_Y1230_Y1230C_YF] fall at or above the 0.6 mark?
t
